Provenance of the data: patent US20260306527A1

Molecular target: PRMT4 (Homo sapiens)
Sequence (Q86X55 1-608): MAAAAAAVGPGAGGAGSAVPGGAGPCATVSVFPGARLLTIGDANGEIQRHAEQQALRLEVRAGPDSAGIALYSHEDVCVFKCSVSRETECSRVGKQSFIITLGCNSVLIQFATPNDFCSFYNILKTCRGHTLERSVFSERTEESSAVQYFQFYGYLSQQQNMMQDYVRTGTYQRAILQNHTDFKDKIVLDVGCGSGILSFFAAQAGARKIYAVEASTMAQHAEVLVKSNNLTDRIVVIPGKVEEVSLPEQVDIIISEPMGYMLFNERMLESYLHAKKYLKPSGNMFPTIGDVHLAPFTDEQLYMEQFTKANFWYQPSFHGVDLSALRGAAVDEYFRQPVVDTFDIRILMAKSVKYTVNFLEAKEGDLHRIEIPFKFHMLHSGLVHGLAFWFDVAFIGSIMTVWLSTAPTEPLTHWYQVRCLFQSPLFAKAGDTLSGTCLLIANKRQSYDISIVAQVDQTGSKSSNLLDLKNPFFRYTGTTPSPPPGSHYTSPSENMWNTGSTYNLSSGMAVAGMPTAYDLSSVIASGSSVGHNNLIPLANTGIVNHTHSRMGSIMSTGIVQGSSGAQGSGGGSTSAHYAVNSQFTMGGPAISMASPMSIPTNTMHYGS
Assay: radioactive assay (Reaction Biology Corp.), inhibition of PRMT4
Format: biochemical
property_label: inhibition at 10 µM (%)
Field: numeric (%). Do not append units.

> print(dat)
                                   compound     system.under.test       property.label  measured.number
1  Nc1ncnc2c1ncn2[C@@H]1O[C@H](CSCCNC(=O)NCc2ccc(-c3ccccc3O)cc2)[C@@H](O)[C@H]1O  PRMT4 (Homo sapiens)  inhibition at 10 µM               53
2  Nc1ncnc2c1ncn2[C@@H]1O[C@H](CSCCCNCc2cccc(-c3ccc(C(F)(F)F)cc3)c2)[C@@H](O)[C@H]1O [Compound 10o]  PRMT4 (Homo sapiens)  inhibition at 10 µM               97

For `N=C(NCCCSC[C@H]1O[C@@H](n2cnc3c(N)ncnc32)[C@H](O)[C@@H]1O)Nc1cccc(-c2cccc(F)c2)c1` , what is its reported inhibition at 10 µM?
100

----------
Target: PRMT6 (Homo sapiens, UniProt Q96LA8)
Sequence (Q96LA8 whole entry, species assumed): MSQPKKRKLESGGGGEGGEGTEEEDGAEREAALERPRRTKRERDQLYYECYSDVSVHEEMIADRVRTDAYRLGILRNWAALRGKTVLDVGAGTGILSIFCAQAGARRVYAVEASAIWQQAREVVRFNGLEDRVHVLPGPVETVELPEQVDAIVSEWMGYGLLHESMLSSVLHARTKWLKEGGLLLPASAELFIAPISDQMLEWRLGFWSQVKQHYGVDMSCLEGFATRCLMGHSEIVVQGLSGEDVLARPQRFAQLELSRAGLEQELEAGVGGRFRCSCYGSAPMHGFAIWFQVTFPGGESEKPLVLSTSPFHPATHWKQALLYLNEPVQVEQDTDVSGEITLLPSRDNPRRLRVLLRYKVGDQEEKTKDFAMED
Test: radioactive assay (Reaction Biology Corp.), inhibition of PRMT6
Format: biochemical
property_label: inhibition at 10 µM (%)
Field: numeric (%). Do not append units.

> print(dat)
                                   compound  unit.descriptor  measured.number
1  Nc1ncnc2c1ncn2[C@@H]1O[C@H](CSCCOc2ccc(-c3ccncc3)cc2)[C@@H](O)[C@H]1O [Compound 14h]                %                6
2  N=C(NCCCSC[C@H]1O[C@@H](n2cnc3c(N)ncnc32)[C@H](O)[C@@H]1O)Nc1cccc(-c2ccoc2)c1                %               95
3  N=C(NCCSC[C@H]1O[C@@H](n2cnc3c(N)ncnc32)[C@H](O)[C@@H]1O)NCc1ccccc1                %               93

For N=C(NCCCSC[C@H]1O[C@@H](n2cnc3c(NCCCc4ccccc4)ncnc32)[C@H](O)[C@@H]1O)NCc1ccccc1 [Compound 19k] , what is its reported inhibition at 10 µM?
89

For `Nc1ncnc2c1ncn2[C@@H]1O[C@H](CSCCCNC(=O)NCCCc2ccccc2)[C@@H](O)[C@H]1O` , what is its reported inhibition at 10 µM?
-6

For `N=C(NCCSC[C@H]1O[C@@H](n2cnc3c(N)ncnc32)[C@H](O)[C@@H]1O)Nc1cccc(-c2ccc(Cl)cc2)c1` , what is its reported inhibition at 10 µM?
91

For `Nc1ncnc2c1ncn2[C@@H]1O[C@H](CSCCCNC(=O)NCc2ccc3c(c2)OCO3)[C@@H](O)[C@H]1O` , what is its reported inhibition at 10 µM?
89

----------
Target: PRMT1 (Homo sapiens)
Construct: made in house
Sequence (Q99873 whole entry, species assumed): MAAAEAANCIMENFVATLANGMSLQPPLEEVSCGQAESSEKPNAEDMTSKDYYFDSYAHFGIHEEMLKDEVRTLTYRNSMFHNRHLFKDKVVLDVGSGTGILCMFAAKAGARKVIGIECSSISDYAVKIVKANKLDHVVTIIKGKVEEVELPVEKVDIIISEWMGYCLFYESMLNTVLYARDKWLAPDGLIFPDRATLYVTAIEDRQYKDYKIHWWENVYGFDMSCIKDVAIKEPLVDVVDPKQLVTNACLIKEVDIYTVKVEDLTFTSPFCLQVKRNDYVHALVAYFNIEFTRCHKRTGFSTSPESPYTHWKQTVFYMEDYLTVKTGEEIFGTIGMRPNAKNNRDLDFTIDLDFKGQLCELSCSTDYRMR
Assay: SAHH-coupled fluorescence assay, inhibition of PRMT1
Type: biochemical
Settings: read-out: IC50[μM] | PRMT1
Overview of recorded IC50 for various molecules
Field: numeric (µM). Do not append units.

Tell me reported IC50 for `N=C(NCCCSC[C@H]1O[C@@H](n2cnc3c(N)ncnc32)[C@H](O)[C@@H]1O)Nc1cccc(Br)c1` , tested with PRMT1 (Homo sapiens).
0.08

----------
Target: PRMT1 (Homo sapiens)
Construct: made in house
Assay: SAHH-coupled fluorescence assay, inhibition of PRMT1
Assay type: biochemical
Classify as follows. Reported inhibition at 10 µM greater than or equal to 10%: YES. Reported inhibition at 10 µM below: NO.

See these solved cases before continuing.
> print(dat)
                                   molecule  category.label
1  N=C(NCCCSC[C@H]1O[C@@H](n2cnc3c(N)ncnc32)[C@H](O)[C@@H]1O)Nc1cccc(-c2ccc(F)c(O)c2)c1             YES
2  COc1cc2nc(-c3ccoc3)nc(NCCSC[C@H]3O[C@@H](n4cnc5c(N)ncnc54)[C@H](O)[C@@H]3O)c2cc1OC [Compound 12d]              NO

Confirm if inhibition at 10 µM reported for the molecule Nc1ncnc2c1ncn2[C@@H]1O[C@H](CSCCOc2ccc(-c3ccc(O)cc3)cc2)[C@@H](O)[C@H]1O [Compound 14b] is 10% or above.
NO

Confirm if inhibition at 10 µM reported for the molecule Nc1ncnc2c1ncn2[C@@H]1O[C@H](CSCCCNCc2cccc(-c3ccoc3)c2)[C@@H](O)[C@H]1O [Compound 10p] is 10% or above.
YES

Confirm if inhibition at 10 µM reported for the molecule `Nc1ncnc2c1ncn2[C@@H]1O[C@H](CSCCNCc2cccc(Br)c2)[C@@H](O)[C@H]1O` is 10% or above.
YES

Confirm if inhibition at 10 µM reported for the molecule `Nc1ncnc2c1ncn2[C@@H]1O[C@H](CSCCNC(=O)NCc2ccc(F)cc2)[C@@H](O)[C@H]1O` is 10% or above.
NO

Confirm if inhibition at 10 µM reported for the molecule COc1cc2nc(-c3ccccc3O)nc(NCCSC[C@H]3O[C@@H](n4cnc5c(N)ncnc54)[C@H](O)[C@@H]3O)c2cc1OC [Compound 12h] is 10% or above.
NO

----------
Overview of recorded inhibition at 10 µM for various molecules
Target: PRMT8 (Homo sapiens)
Sequence (Q9NR22 whole entry, species assumed): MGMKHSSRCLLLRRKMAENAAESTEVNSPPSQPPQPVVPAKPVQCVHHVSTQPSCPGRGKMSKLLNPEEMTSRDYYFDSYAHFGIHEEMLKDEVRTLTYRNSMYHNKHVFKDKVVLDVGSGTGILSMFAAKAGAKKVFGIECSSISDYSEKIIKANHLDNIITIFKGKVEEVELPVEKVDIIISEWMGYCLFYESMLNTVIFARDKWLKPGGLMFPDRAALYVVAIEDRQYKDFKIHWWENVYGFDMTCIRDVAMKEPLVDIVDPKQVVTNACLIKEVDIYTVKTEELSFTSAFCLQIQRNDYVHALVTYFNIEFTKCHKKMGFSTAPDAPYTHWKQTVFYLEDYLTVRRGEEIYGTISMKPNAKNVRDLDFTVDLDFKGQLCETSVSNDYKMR
Test: radioactive assay (Reaction Biology Corp.), inhibition of PRMT8
Format: biochemical
Field: numeric (%). Do not append units.

> print(dat)
                                   molecule     system.under.test  unit.descriptor  measured.number
1  COc1cc2nc(-c3ccc(O)cc3)nc(NCCSC[C@H]3O[C@@H](n4cnc5c(N)ncnc54)[C@H](O)[C@@H]3O)c2cc1OC [Compound 12b]  PRMT8 (Homo sapiens)                %               22

Tell me reported inhibition at 10 µM for Nc1ncnc2c1ncn2[C@@H]1O[C@H](CSCCNC(=O)NCc2ccc(-c3cc[nH]n3)cc2)[C@@H](O)[C@H]1O [Compound 8f] , tested with PRMT8 (Homo sapiens).
2

Tell me reported inhibition at 10 µM for Nc1ncnc2c1ncn2[C@@H]1O[C@H](CSCCNC(=O)NCc2ccc(-c3ccccc3O)cc2)[C@@H](O)[C@H]1O [Compound 8e] , tested with PRMT8 (Homo sapiens).
-2

Tell me reported inhibition at 10 µM for N=C(NCCCSC[C@H]1O[C@@H](n2cnc3c(N)ncnc32)[C@H](O)[C@@H]1O)Nc1cccc(-c2cccc(F)c2)c1 [Compound 6j] , tested with PRMT8 (Homo sapiens).
99

Tell me reported inhibition at 10 µM for N=C(NCCCSC[C@H]1O[C@@H](n2cnc3c(NCCCc4ccccc4)ncnc32)[C@H](O)[C@@H]1O)NC1CCCC1 [Compound 19d] , tested with PRMT8 (Homo sapiens).
85

Tell me reported inhibition at 10 µM for Nc1ncnc2c1ncn2[C@@H]1O[C@H](CSCCCNCc2cccc(-c3cccc4cn[nH]c34)c2)[C@@H](O)[C@H]1O [Compound 10t] , tested with PRMT8 (Homo sapiens).
72

----------
Target: PRMT3 (Homo sapiens, UniProt O60678)
Sequence (O60678 211-531): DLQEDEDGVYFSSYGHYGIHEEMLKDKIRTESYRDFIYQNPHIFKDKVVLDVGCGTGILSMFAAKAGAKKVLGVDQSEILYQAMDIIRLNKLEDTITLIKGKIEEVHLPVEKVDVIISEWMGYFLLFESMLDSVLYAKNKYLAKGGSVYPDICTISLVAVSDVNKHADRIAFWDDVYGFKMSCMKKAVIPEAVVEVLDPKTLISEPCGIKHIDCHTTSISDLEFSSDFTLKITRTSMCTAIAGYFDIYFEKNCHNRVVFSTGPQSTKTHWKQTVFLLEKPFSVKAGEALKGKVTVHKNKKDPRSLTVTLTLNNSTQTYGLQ
Assay: SAHH-coupled fluorescence assay, inhibition of PRMT3
Assay type: biochemical
Parameters: PRMT3 (residues 211-531) was cloned into the pET28a-MHL expression vector; tag of the pET28a-MHL vector (not described); made in house; host or cells: Escherichia coli BL21(DE3)
property_label: inhibition at 10 µM (%)
Field: numeric (%). Do not append units.

Here is how some molecules turned out for inhibition at 10 µM.
> print(dat)
                                   molecule  measured.number
1  Nc1ncnc2c1ncn2[C@@H]1O[C@H](CSCCOc2ccc(-c3cncnc3)cc2)[C@@H](O)[C@H]1O [Compound 14e]               16
2  Nc1ncnc2c1ncn2[C@@H]1O[C@H](CSCCNC(=O)Nc2ccc(F)cc2)[C@@H](O)[C@H]1O [Compound 7j]               78
3  Nc1ncnc2c1ncn2[C@@H]1O[C@H](CSCCNC(=O)Nc2ccccc2Br)[C@@H](O)[C@H]1O [Compound 7m]               55
4  Nc1ncnc2c1ncn2[C@@H]1O[C@H](CSCCOc2ccc(-c3ccc(Cl)cc3)cc2)[C@@H](O)[C@H]1O [Compound 14a]                9
5  N=C(NCCCSC[C@H]1O[C@@H](n2cnc3c(N)ncnc32)[C@H](O)[C@@H]1O)Nc1cccc(F)c1 [Compound 7s]                9
6  Nc1ncnc2c1ncn2[C@@H]1O[C@H](CSCCNC(=O)NC2CCCCC2)[C@@H](O)[C@H]1O [Compound 7i]                2

// next entry
Tell me reported inhibition at 10 µM for N=C(NCCCSC[C@H]1O[C@@H](n2cnc3c(NCCCc4ccccc4)ncnc32)[C@H](O)[C@@H]1O)NC1CC1 [Compound 19b] , tested with PRMT3 (Homo sapiens, UniProt O60678).
13
